B1: library; numbered along this chain (parent)
chain: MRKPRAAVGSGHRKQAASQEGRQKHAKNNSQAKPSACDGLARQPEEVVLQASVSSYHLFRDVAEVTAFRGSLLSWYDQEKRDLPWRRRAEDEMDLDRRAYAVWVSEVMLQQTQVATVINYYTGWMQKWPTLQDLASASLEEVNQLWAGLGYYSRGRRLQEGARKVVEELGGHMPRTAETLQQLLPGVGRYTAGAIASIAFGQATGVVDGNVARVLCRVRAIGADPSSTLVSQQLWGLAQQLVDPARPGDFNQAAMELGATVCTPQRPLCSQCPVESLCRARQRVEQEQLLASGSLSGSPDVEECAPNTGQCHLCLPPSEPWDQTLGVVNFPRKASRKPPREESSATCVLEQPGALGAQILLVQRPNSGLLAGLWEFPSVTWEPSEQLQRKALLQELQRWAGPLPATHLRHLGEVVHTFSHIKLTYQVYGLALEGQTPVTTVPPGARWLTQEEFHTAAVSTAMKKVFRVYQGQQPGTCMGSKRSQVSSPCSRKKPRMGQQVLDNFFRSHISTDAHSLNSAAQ

Variants of: B1
protocolDescription: 8OG:A repair function score (normalized; synonymous = 0, nonsense = -1) (normalized log-likelihood score); higher = more repair activity (WT-like);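 also: cells sorted at 72 h after reporter transfection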
conditionDescription: with 8OG:A DNA repair reporter (GFP) in HEK-293 MUTYH KO cells
Please use the following 8OG:A repair function score ranges when assigning a class: range 1: < -0.3; range 2: ≥ -0.3 and < -0.09; range 3: ≥ -0.09

Observe how each entry below is paired with its result.
C262S ... range 1
F250C ... range 1
V48P ... range 2

# input Which bin should I file R154V under?
# output range 1

# input Which bin should I file Y120T under?
# output range 3

Data credit: the supplement of paper PMC11908140
